For each entry below, report its AC50 value.
- Tested system: human PAH with the R408W mutation (Homo sapiens, UniProt P00439, R408W)
- Construct: expressed in transfected cells
- Sequence (P00439 whole entry R408W): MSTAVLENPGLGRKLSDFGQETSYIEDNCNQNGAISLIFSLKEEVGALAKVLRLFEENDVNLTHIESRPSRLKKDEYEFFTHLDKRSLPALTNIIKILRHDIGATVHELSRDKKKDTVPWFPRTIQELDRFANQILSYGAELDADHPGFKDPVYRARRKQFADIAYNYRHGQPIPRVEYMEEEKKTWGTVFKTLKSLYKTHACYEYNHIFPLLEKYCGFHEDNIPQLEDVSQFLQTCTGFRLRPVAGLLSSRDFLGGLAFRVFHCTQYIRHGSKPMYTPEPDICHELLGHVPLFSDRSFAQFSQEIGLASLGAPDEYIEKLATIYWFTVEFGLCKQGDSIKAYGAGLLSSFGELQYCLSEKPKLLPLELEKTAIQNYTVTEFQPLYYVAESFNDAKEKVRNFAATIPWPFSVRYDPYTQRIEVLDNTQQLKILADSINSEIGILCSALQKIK
- Protocol: Cell Based Phenylalanine Flux Assay
- Experimental context: A375 R408W cells, 24 hrs with compound, then 20 μM sepiapterin and 800 μM 13C9,15N-Phenylalanine for 4 hours; 13C-Tyrosine by LC-MS; average where tested multiple times; read-out: AC50

Examples with answers:
[[record]]
molecule = "Cn1cc(-c2nnc(C(=O)N3CCc4[nH]cnc4C3c3cn4ccccc4n3)o2)cn1 (stereo not shown)"
endpoint_label = "AC50"
result = "1 to 5 µM"

[[record]]
molecule = "O=C(c1cnco1)N1CCc2[nH]cnc2C1c1ccc2ccccc2n1 (stereo not shown)"
endpoint_label = "AC50"
result = "> 5 µM"

[[record]]
molecule = "Cc1ncoc1C(=O)N1CCc2[nH]cnc2C1c1cc2ccccc2cn1 (stereo not shown)"
endpoint_label = "AC50"
result = "1 to 5 µM"

[[record]]
molecule = "CC(C)(O)c1cc(C(=O)N2CCc3[nH]cnc3C2c2ccc3ccccc3n2)on1 (stereo not shown)"
endpoint_label = "AC50"
result = "1 to 5 µM"

[[record]]
molecule = "O=C(c1nnc(N2CCOCC2)o1)N1CCc2[nH]cnc2C1c1ncc2ccccc2n1 (stereo not shown)"
endpoint_label = "AC50"
result = "1 to 5 µM"


Quick batch: AC50 for everything below.
1. CC(C)(O)c1cc(C(=O)N2CCc3[nH]cnc3C2c2ccc3ccccc3n2)[nH]n1 (stereo not shown)
2. COCCNc1nnc(C(=O)N2CC(C)c3[nH]cnc3C2c2cc3ccccc3cn2)o1 (stereo not shown)
3. O=C(C1CC1(F)F)N1CCc2[nH]cnc2C1c1cn2ccccc2n1 (stereo not shown)
4. O=C(C1CN(CC(F)(F)F)C1)N1CCc2[nH]cnc2C1c1ccc2ccccc2n1 (stereo not shown)
5. CC(C)(O)c1nnc(C(=O)N2CCc3[nH]cnc3C2c2ncc3ccccc3n2)o1 (stereo not shown)
6. CN(C)Cc1ccc2c(C(=O)N3CC(C)(C)c4[nH]cnc4C3c3cc4ccccc4cn3)cnn2c1 (stereo not shown)
7. O=C(c1cnn(-c2ccccn2)c1Cl)N1CCc2[nH]cnc2C1c1ccc2ccccc2n1 (stereo not shown)

Marked response:
> 5 µM
1 to 5 µM
> 5 µM
1 to 5 µM
1 to 5 µM
> 5 µM
1 to 5 µM

Exam item: For the molecule shown here, O=C(c1nnc(CCNC2CC2)o1)N1CCc2[nH]cnc2C1c1ccc2ccccc2n1 (stereo not shown) , give the reported AC50.
Marked response: 1 to 5 µM

###

For each entry below, report its AC50 value.
- Tested system: human PAH with the R408W mutation (Homo sapiens, UniProt P00439, R408W)
- Construct: expressed in transfected cells
- Protocol: Cell Based Phenylalanine Flux Assay
- Experimental context: A375 cells expressing human R408W PAH; 24 hrs compound incubation; 13C-Tyrosine by LC-MS; average where tested multiple times; read-out: AC50

Examples with answers:
[[record]]
compound = "Cc1nc(-c2ccccn2)oc1C(=O)N1CCc2[nH]cnc2[C@@H]1c1cc2ccccc2nn1"
endpoint_label = "AC50"
result = "> 5000 nM"

[[record]]
compound = "Cc1ncoc1C(=O)N1CC2(CC2)c2[nH]cnc2[C@@H]1c1cc2ccccc2cn1"
endpoint_label = "AC50"
result = "> 5000 nM"

[[record]]
compound = "Cn1cc(-c2nnc(C(=O)N3CCc4[nH]cnc4[C@@H]3c3ncc4ccccc4n3)o2)cn1"
endpoint_label = "AC50"
result = "> 5000 nM"

[[record]]
compound = "Cn1cc(C(=O)N2CCc3[nH]cnc3C2c2ccc3ccccc3n2)c(C(F)F)n1 (stereo in doubt) [Example 83]"
endpoint_label = "AC50"
result = "< 500 nM"

[[record]]
compound = "Cn1nc(C(F)F)nc1C(=O)N1CCc2[nH]cnc2[C@H]1c1cc2ccccc2cn1"
endpoint_label = "AC50"
result = "< 500 nM"

[[record]]
compound = "COc1ccc(-c2nnc(C(=O)N3CCc4[nH]cnc4[C@@H]3c3ncc4ccccc4n3)o2)nc1"
endpoint_label = "AC50"
result = "1000 to 5000 nM"


API: the following record is the query input.
Exam item: For the compound shown here, `O=C(Cc1ccccn1)N1CCc2[nH]cnc2[C@H]1c1cc2ccccc2cn1` , give the reported AC50.
Marked response: < 500 nM

###

- Tested system: human PAH with the R408W mutation (Homo sapiens, UniProt P00439, R408W)
- Construct: expressed in transfected cells
- Protocol: Cell Based Phenylalanine Flux Assay
- Experimental context: A375 R408W cells, 24 hrs with compound, then 20 μM sepiapterin and 800 μM 13C9,15N-Phenylalanine for 4 hours; 13C-Tyrosine by LC-MS; average where tested multiple times; read-out: AC50
For each entry below, report its AC50 value.

[[record]]
molecule = "O=C(c1oc(-c2ccccn2)nc1C1CC1)N1CCCc2[nH]cnc2C1c1cn2ccccc2n1 (stereo not shown)"
endpoint_label = "AC50"
result = "> 5 µM"

[[record]]
molecule = "COC(=O)N1CC(C(=O)N2CCc3[nH]cnc3C2c2ccc3ccccc3n2)C1 (stereo not shown)"
endpoint_label = "AC50"
result = "> 5 µM"


Quick batch: AC50 for everything below.
1. C[C@H]1CN(c2nnc(-c3ccccn3)o2)[C@@H](c2cc3ccccc3cn2)c2nc[nH]c21 (single isomer, unassigned)
2. O=C(Cc1cnn2ccccc12)N1CCc2[nH]cnc2C1c1cn2ccccc2n1 (stereo not shown)
3. Cc1nc(CCN2CC(F)C2)oc1C(=O)N1CCc2[nH]cnc2C1c1ccc2ccccc2n1 (stereo not shown)

Marked response:
1: > 5 µM; 2: > 5 µM; 3: > 5 µM

Quick batch: AC50 for everything below.
1. C[C@H](O)c1nnc(C(=O)N2CCc3[nH]cnc3[C@H]2c2cc3ccccc3nn2)o1 (single isomer, unassigned)
2. COCc1ncc(C(=O)N2CCc3[nH]cnc3[C@@H]2c2ccc3ccccc3n2)o1 (single isomer, unassigned)

Marked response:
["1 to 5 µM", "1 to 5 µM"]
